- TESTED_TARGET: recombinant IL4I1 (Homo sapiens)
- Construct: purchased R&D Systems 5684-AO-020
- TEST: IL4I1 Enzymatic Assay (Amplex Red/HRP coupled H2O2 detection)
- Assay type: biochemical
- RECORDED_CONDITIONS: 240 min; four-hour pre-incubation with compound; 1 nM IL4I1, 1 mM each Phe/Tyr/Trp; ten-point titration; fluorescence readout; read-out: Potency EC50 (nM) (240 min)
# EC50 per entry
Express it in nM; write the number only.

[
  {
    "COMPOUND": "O=C(Cc1ccc(Cn2c(=O)[nH]c3ccccc32)cc1)N1CCC(F)C1 (stereo not drawn) [Example 108]",
    "TESTED_TARGET": "recombinant IL4I1 (Homo sapiens)",
    "UNIT_INFO": "nM",
    "MEASUREMENT": 8
  },
  {
    "COMPOUND": "O=c1[nH]c2ccccc2n1Cc1cccnc1 [Example 56]",
    "TESTED_TARGET": "recombinant IL4I1 (Homo sapiens)",
    "UNIT_INFO": "nM",
    "MEASUREMENT": 2480
  },
  {
    "COMPOUND": "CN(C)C(=O)Cc1ccc(Cn2c(=O)[nH]c3ccccc32)nc1 [Example 37]",
    "TESTED_TARGET": "recombinant IL4I1 (Homo sapiens)",
    "UNIT_INFO": "nM",
    "MEASUREMENT": 1600
  },
  {
    "COMPOUND": "CC(C)(C)c1ccnc(Cn2c(=O)[nH]c3ccccc32)c1 [Example 63]",
    "TESTED_TARGET": "recombinant IL4I1 (Homo sapiens)",
    "UNIT_INFO": "nM",
    "MEASUREMENT": 4530
  },
  {
    "COMPOUND": "CC(=O)NCc1ccc(Cn2c(=O)n(C(F)F)c3ccccc32)cc1 [Example 76]",
    "TESTED_TARGET": "recombinant IL4I1 (Homo sapiens)",
    "UNIT_INFO": "nM",
    "MEASUREMENT": 9
  }
]

Continue with the compound presented below.
Sample CS(=O)(=O)NCc1ccc(Cn2c(=O)[nH]c3ccccc32)cc1 [Example 12] ; EC50 observed: 8

---

# log10(EC50) per entry
- TESTED_TARGET: recombinant IL4I1 (Homo sapiens)
- Construct: purchased R&D Systems 5684-AO-020
- Sequence (Q96RQ9 22-567): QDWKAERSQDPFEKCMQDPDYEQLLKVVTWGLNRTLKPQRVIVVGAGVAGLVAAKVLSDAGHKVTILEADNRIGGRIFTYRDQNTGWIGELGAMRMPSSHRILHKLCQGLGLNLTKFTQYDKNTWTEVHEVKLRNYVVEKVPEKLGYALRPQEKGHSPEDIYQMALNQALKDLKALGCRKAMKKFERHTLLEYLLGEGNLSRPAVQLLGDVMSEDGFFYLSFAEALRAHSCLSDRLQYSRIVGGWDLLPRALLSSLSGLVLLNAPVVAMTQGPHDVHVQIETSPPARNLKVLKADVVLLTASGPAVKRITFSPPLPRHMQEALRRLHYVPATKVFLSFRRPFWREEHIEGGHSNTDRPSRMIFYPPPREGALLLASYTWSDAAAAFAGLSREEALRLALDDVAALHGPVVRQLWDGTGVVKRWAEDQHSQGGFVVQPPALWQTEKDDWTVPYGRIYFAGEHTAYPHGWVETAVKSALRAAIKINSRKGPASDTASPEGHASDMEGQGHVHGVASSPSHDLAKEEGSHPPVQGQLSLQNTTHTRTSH
- TEST: IL4I1 Enzymatic Assay (Amplex Red/HRP coupled H2O2 detection)
- Format: biochemical
- RECORDED_CONDITIONS: 240 min; four-hour pre-incubation with compound; 1 nM IL4I1, 1 mM each Phe/Tyr/Trp; ten-point titration; fluorescence readout; read-out: Potency EC50 (nM) (240 min)
Units before log transform: nM; reported quantity: EC50; transform: log10.

[
  {
    "MOLECULE": "CC(=O)NCc1ccc(Cn2c(=O)[nH]c3ccccc32)cc1Cl",
    "TESTED_TARGET": "recombinant IL4I1 (Homo sapiens)",
    "log10(EC50)": 1.11
  }
]

Sample CC(=O)N(C)Cc1ccc(Cn2c(=O)[nH]c3ccccc32)cc1 ; log10(EC50) observed: 1.38

Sample CC(=O)NCc1ccc(Cn2c(=O)[nH]c3ccc(F)cc32)cc1 ; log10(EC50) observed: 0.95
